Recorded values, source paper PMC12133982.

The following compounds are listed with their measured pIC50 values.
# tested on: HLA-B4601 (Homo sapiens, UniProt P01889, A329T/A93R/C349S/D201E/E100V/E187L/E204Q/E69M/E70A/I90K/K202T/N87E/R155S/R180W/S121R/S35A/S48A/V306I/V36M/Y140S)
# run description: Competitive peptide binding assay, CIR-B4601
# setup conditions: HMy2.CIR-B4601 cells, reference Cy5-[…], class from inhibition at 5 and 15 μM, flow cytometry MFI; read-out: Binding affinity with HLA-B4601
pIC50: −log10 of the molar value. Peptide text beside a SMILES is read from it.
property measured: pIC50

compound	observed
CC(C)C[C@H](NC(=O)[C@H](CC(C)C)NC(=O)[C@@H](NC(=O)[C@@H](NC(=O)[C@@H](NC(=O)[C@H](CCC(N)=O)NC(=O)[C@H](CCC(N)=O)NC(=O)[C@H](CCCCN)NC(=O)[C@@H](N)CCCCN)[C@@H](C)O)C(C)C)[C@@H](C)O)C(=O)O [Epitope Y196] (H-KKQQTVTLL-OH; N-terminus and C-terminus assumed)	> 5.30
CC(C)C[C@H](NC(=O)[C@H](CC(N)=O)NC(=O)[C@H](CCCCN)NC(=O)[C@@H](NC(=O)[C@H](CCCNC(=N)N)NC(=O)[C@H](CO)NC(=O)[C@H](Cc1ccc(O)cc1)NC(=O)[C@@H](NC(=O)[C@@H](N)Cc1ccc(O)cc1)C(C)C)C(C)C)C(=O)O [Epitope Y3] (H-YVYSRVKNL-OH; N-terminus and C-terminus assumed)	< 4.82
CSCC[C@H](NC(=O)[C@H](CCSC)NC(=O)[C@H](CO)NC(=O)[C@H](Cc1ccccc1)NC(=O)[C@H](Cc1c[nH]cn1)NC(=O)[C@H](CCCCN)NC(=O)[C@H](CCCNC(=N)N)NC(=O)[C@H](CC(C)C)NC(=O)[C@@H](N)Cc1ccc(O)cc1)C(=O)O [Epitope Y28] (H-YLRKHFSMM-OH; N-terminus and C-terminus assumed)	> 5.30
